biological target: CYP3A4 (Homo sapiens); test: Determination of compound Kiapp against recombinant CYP3A4 enzyme (BFC fluorescent substrate); type: biochemical; settings: Baculo. enzyme preparation, read-out: Kiapp (BFC, Baculo.)
Sequence (P08684 whole entry): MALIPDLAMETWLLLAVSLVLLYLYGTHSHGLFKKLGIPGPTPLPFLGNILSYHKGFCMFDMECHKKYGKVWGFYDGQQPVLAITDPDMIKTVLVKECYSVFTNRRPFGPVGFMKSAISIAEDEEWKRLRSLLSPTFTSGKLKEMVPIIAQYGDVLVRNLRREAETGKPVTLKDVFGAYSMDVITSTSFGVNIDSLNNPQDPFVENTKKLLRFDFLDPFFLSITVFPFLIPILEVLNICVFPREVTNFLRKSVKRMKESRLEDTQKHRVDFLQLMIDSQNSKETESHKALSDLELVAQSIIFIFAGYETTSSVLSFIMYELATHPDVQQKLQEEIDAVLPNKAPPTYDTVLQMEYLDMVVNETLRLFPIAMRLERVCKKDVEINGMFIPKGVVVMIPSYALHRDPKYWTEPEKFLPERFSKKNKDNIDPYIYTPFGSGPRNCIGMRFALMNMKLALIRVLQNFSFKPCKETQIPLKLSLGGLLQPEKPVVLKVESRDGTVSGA
pKi: −log10 of the molar value.
Rule: MET for pKi not less than 7, NOT MET for anything less.

>>> class_assignment("CC1CCN(CC(C)(C)NC(=O)c2ccccc2S(=O)(=O)Nc2cccnc2)CC1 [Example 1]")
"NOT MET"
>>> class_assignment("COc1cncc(NS(=O)(=O)c2ccccc2C(=O)NCCc2ccccc2F)c1 [Example 258]")
"MET"
>>> class_assignment("COc1cncc(NS(=O)(=O)c2ccccc2C(=O)NCCC2CCCN2C)c1 (stereo not drawn) [Example 387]")
"NOT MET"
>>> class_assignment("CCCN(CC1CC1)C(=O)c1ccccc1S(=O)(=O)N(C)c1cccnc1 [Example 337]")
"NOT MET"
>>> class_assignment("COc1cncc(NS(=O)(=O)c2ccccc2C(=O)NCc2ccc(F)cc2F)c1 [Example 212]")
"MET"
>>> class_assignment("COc1cncc(NS(=O)(=O)c2ccccc2C(=O)N(C)Cc2ccc(F)c(F)c2)c1 [Example 285]")
"MET"
>>> class_assignment("COc1cncc(NS(=O)(=O)c2ccc(Cl)cc2C(=O)NCCC(C)C)c1 [Example 295]")
"NOT MET"
>>> class_assignment("COc1cncc(NS(=O)(=O)c2ccccc2C(=O)N[C@H](CO)CC2CCCCC2)c1 [Example 190]")
"MET"
>>> class_assignment("CCCCN(C)C(=O)c1ccccc1S(=O)(=O)Nc1cnccc1OC [Example 280]")
"NOT MET"
>>> class_assignment("CC[C@@H](C)NC(=O)c1ccccc1S(=O)(=O)Nc1cncc(OC)c1 [Example 101]")
"NOT MET"
>>> class_assignment("CCOc1ccncc1NS(=O)(=O)c1ccccc1C(=O)NCCc1ccccc1C [Example 269]")
"MET"
>>> class_assignment("CCOc1cncc(NS(=O)(=O)c2ccccc2C(=O)N2CCOCC2)c1 [Example 305]")
"NOT MET"
>>> class_assignment("Cc1ccccc1CCNC(=O)c1ccccc1S(=O)(=O)Nc1cccnc1 [Example 75]")
"MET"
>>> class_assignment("Cc1cncc(NS(=O)(=O)c2ccccc2C(=O)NCc2ccc(Cl)c(Cl)c2)c1 [Example 318]")
"MET"
>>> class_assignment("COc1cncc(NS(=O)(=O)c2ccccc2C(=O)NCCOC(C)C)c1 [Example 241]")
"NOT MET"

Ref: patent US7868026B2
